The reported measurements were obtained from ChEMBL document CHEMBL2010797.

The following compounds are shown together with reported inhibition values.
Target: Cyclin-dependent kinase 2/cyclin A (Homo sapiens) (UniProt P24941+P20248+P78396)
Assay: Inhibition of CDK2/cyclin A using 5-FAM-GGGPATPKKAKKL-COOH as substrate at 10 uM after 1 hr by IMAP assay
Assay type: protein-complex assay
measured_quantity: inhibition (%)

INSERT INTO results (compound, experimental_target, measured_quantity, numeric_result) VALUES
  ('C[C@H]1C/C=C/[C@@H](O)[C@@H](O)CCC(=O)Cc2cc(O)cc(O)c2C(=O)O1', 'Cyclin-dependent kinase 2/cyclin A (Homo sapiens) (UniProt P24941+P20248+P78396)', 'inhibition', 21),
  ('C[C@H]1C/C=C/CCCC/C=C/c2cc(O)cc(O)c2C(=O)O1', 'Cyclin-dependent kinase 2/cyclin A (Homo sapiens) (UniProt P24941+P20248+P78396)', 'inhibition', 17),
  ('C[C@H]1C/C=C/[C@@H](O)[C@@H](O)CC/C=C/c2cc(O)cc(O)c2C(=O)O1 [AIGIALOMYCIN D]', 'Cyclin-dependent kinase 2/cyclin A (Homo sapiens) (UniProt P24941+P20248+P78396)', 'inhibition', 55),
  ('C[C@H]1C/C=C/[C@@H](O)[C@@H](O)CCC(O)Cc2cc(O)cc(O)c2C(=O)O1 (mixture of isomers)', 'Cyclin-dependent kinase 2/cyclin A (Homo sapiens) (UniProt P24941+P20248+P78396)', 'inhibition', 8),
  ('C[C@H]1CCC[C@@H](O)[C@@H](O)CCCCc2cc(O)cc(O)c2C(=O)O1', 'Cyclin-dependent kinase 2/cyclin A (Homo sapiens) (UniProt P24941+P20248+P78396)', 'inhibition', 16),
  ('C[C@H]1CCC[C@@H](O)[C@@H](O)CCC(O)Cc2cc(O)cc(O)c2C(=O)O1 (mixture of isomers)', 'Cyclin-dependent kinase 2/cyclin A (Homo sapiens) (UniProt P24941+P20248+P78396)', 'inhibition', 6),
  ('COc1cc(O)c2c(c1)/C=C/CC[C@H](O)[C@H](O)/C=C/C[C@H](C)OC2=O', 'Cyclin-dependent kinase 2/cyclin A (Homo sapiens) (UniProt P24941+P20248+P78396)', 'inhibition', 49),
  ('COc1cc(O)cc2c1C(=O)O[C@@H](C)CCC[C@@H](O)[C@@H](O)CC/C=C/2', 'Cyclin-dependent kinase 2/cyclin A (Homo sapiens) (UniProt P24941+P20248+P78396)', 'inhibition', 10);
